Tested on: SF-295
Assay: NCI tumour cell line growth inhibition, 48 h
Activity calls are given as the source filed them. No stated cut-off is given here; in the data, active = GI50 up to about 1.1 µM and inactive = higher.
Please reply with one of these outcomes: active, inactive

Example results:
# Compound, Label
data = [
    ("COC1[C@H](NC(=O)OC(C)(C)C)C(=O)N1Cc1ccccc1 (stereo partly specified)", "inactive"),
    ("CC(SC(=S)Nc1cccc(F)c1)C(=O)O (stereo unspecified)", "inactive"),
    ("C=C(C)C(O)CCC1(C)C=Cc2c(c(C)cc3c2[nH]c2ccccc23)O1 (stereo unspecified)", "inactive"),
]

Assay result, entry CC(C(N)=O)N(C)C(=O)c1cnc2ccccc2c1 (stereo unspecified) — outcome?
inactive

Next compound up: CC(=O)OC(Cc1cc(C=C(C(F)(F)F)C(F)(F)F)cc(C)n1)(C(F)(F)F)C(F)(F)F
inactive

Next compound up: CSc1cnn(CCC#N)c(=O)n1
inactive

Next compound up: Nc1nc(=S)n(-c2ccc(Cl)cc2)c2nc3ccccc3cc12
inactive

* * *

Tested on: UACC-62
Experiment: NCI tumour cell line growth inhibition, 48 h
The source made the active and inactive calls. Rule as the data show it: active = GI50 up to about 1.1 µM and inactive = higher.
Please reply with one of these outcomes: y = active, n = inactive

# Compound, Label
records = [
    ("C=C1C(=O)O[C@@H]2[C@H](O)[C@@H](C)[C@@H]3C=CC(=O)[C@@]3(C)[C@H](OC(=O)C=C(C)C)[C@H]12", "y"),
]

Assay result, entry CC1=C[C@@H]2[C@@H](CC(CO)=C[C@H]3[C@@H]4C(C)(C)[C@]4(OCC(C)C)[C@H](OCC(C)C)[C@@H](C)[C@]23O)C1=O — outcome?
n

Next compound up: CC(=O)Nc1ccc(C(=O)NN2C(=O)C(Cl)C2c2ccccc2)cc1 (stereo unspecified)
n

* * *

Tested on: SNB-19
Assay: NCI tumour cell line growth inhibition, 48 h
Activity calls are given as the source filed them. Rule as the data show it: active = GI50 up to about 1.1 µM and inactive = higher.
Outcome measure: GI50

Examples with their reported GI50 follow.
# Compound, Outcome measure, Experimental value
rows = [
    ("C1CSCCSCCCSC2CCCCC2SC1 (centres undefined)", "GI50", "> 100 µM (inactive)"),
    ("Cc1ccc(NC(=O)CCc2cc(C(C)(C)C)nc(S)n2)cc1C", "GI50", "> 100 µM (inactive)"),
    ("CCOC(=O)C1(NC(=O)OC(C)(C)C)CCc2[nH]oc(=O)c2C1 (centres undefined)", "GI50", "> 100 µM (inactive)"),
]

We now examine a further compound.
# query: GI50 of entry CCCCCCCCCC[C@@H](O)[C@@H]1CC[C@H]([C@H]2CC[C@@H]([C@@H](O)CCCCCCCCCC[C@H]3CC(CC(C)=O)C(=O)O3)O2)O1 (some centres undefined)
10.4 µM (inactive)

* * *

Test system: SNB-75
Assay: NCI tumour cell line growth inhibition, 48 h
The source made the active and inactive calls. Cut-off read from the data, not from the text of the source: active = GI50 up to about 1.1 µM and inactive = higher.
Outcome measure: GI50

# Compound, Measured target, GI50
measured = [
    ("CC(C)C(=O)N[C@@H](C)C(=O)N(Cc1ccc2ccccc2c1)N=O", "SNB-75", "> 100 µM (inactive)"),
    ("CCCCN1C(=O)c2c(Br)sc(Br)c2C1=O", "SNB-75", "29.5 µM (inactive)"),
    ("Clc1ncc(Cl)c(Cl)n1", "SNB-75", "2.84 µM (inactive)"),
    ("CCOC(=O)C(=O)/C(=C/NC(=S)c1ccncc1)C(=O)OCC", "SNB-75", "> 100 µM (inactive)"),
    ("O=C1NC2=C(CCCCC/C2=N\\O)C12CCCCCC2", "SNB-75", "> 100 µM (inactive)"),
    ("COc1ccc2c(c1)[nH]c1c3ccc(OC)cc3oc(=O)c21", "SNB-75", "25.1 µM (inactive)"),
    ("O=C1Nc2ccccc2/C1=N\\c1cccc2ncccc12", "SNB-75", "94.8 µM (inactive)"),
    ("CC(C)OP(=O)(OC(C)C)/C(=N/Nc1ccc([N+](=O)[O-])cc1)Nc1ccc(N/C(=N\\Nc2ccc([N+](=O)[O-])cc2)P(=O)(OC(C)C)OC(C)C)cc1", "SNB-75", "14.2 µM (inactive)"),
]

# query: GI50 of entry COC(=O)c1c(O)ccc2c1c1c(n2Cc2ccc(OC)cc2)C(=O)c2ccccc2C1=O
15.1 µM (inactive)
